Test: NCI Yeast Anticancer Drug Screen. Data for the rad14 strain (AID 159);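 also: 0% = growth of vehicle-treated control cultures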
Details: S. cerevisiae rad14 strain growth inhibition; at 11.0 µM
The panel holds about 79,000 compounds, 15% with a hit somewhere; the sample as a whole holds those more often. The source made the active and inactive calls. Rule as the data show it: active = growth inhibition above about 70%; inactive = the rest.
Log the outcome using a class from Y = active, N = inactive

Use the examples below as a reference point.
O=[N+]([O-])/C=C/c1ccc2ccccc2c1 : Y
Cc1ccc(-n2cc(-c3ccc(Cl)cc3)c(C#N)c2N)cc1 : N
O=C1Nc2ccccc2/C1=C/COc1ccccc1 : N

Hey, what did the test say about `Cc1cc(O)cc(O)c1N=Nc1ccc([N+](=O)[O-])cc1` ?
N

Tell me the recorded outcome of this test for `O=C(CC(=O)n1nc(-c2ccccc2)c(N=Nc2ccccc2C(=O)O)c1-c1ccccc1)Nc1ccc(Cl)cc1` .
N

// outcome(item) with item = `CCCC/C=C/C(CC)(C(=O)OCC)C(=O)OCC`
N

Per the assay record, what outcome was assigned to `C/C(=N\NC(=S)SCc1ccccc1)c1ccccn1` ?
N

Please share the test call associated with `C=C(CN(C)C)C(=O)c1cc(C)ccc1C` .
Y

###

Experiment: NCI Yeast Anticancer Drug Screen. Data for the rad18 strain (AID 177)
Settings: S. cerevisiae rad18 mutant growth inhibition; at 3.7 µM
About 79,000 compounds went through this panel and 15% of them were active in at least one assay; those are over-represented in the sample as a whole. Activity calls are given as the source filed them. No stated cut-off is given here; in the data, active means growth inhibition above about 70%; inactive means the rest.
// one of active, inactive, no free text

C[Si](C)(C)CNC(=O)OCc1ccccc1 : inactive
Cc1cc(I)ccc1N : inactive
COc1ccccc1N=NC(C(=O)c1ccccc1)C(=O)c1ccccc1 : inactive

Short answer needed: outcome of this test for `O=C1c2cc([N+](=O)[O-])ccc2-c2cccc(F)c21` ?
active

Please state the recorded outcome for this compound: `O=C1CSc2cc([N+](=O)[O-])ccc2N1`
inactive

How was `CCOC(=O)c1cnc2cc(C(F)(F)F)ccc2c1N=[N+]=[N-]` classified in this test?
inactive

###

Test: NCI Yeast Anticancer Drug Screen. Data for the mlh1 strain (AID 171);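 also: 0% = growth of vehicle-treated control cultures of the same strain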
Settings: S. cerevisiae mlh1 strain growth inhibition; at 11.0 µM; stronger effect = higher value
Compounds without any hit were thinned out: in the full panel of roughly 79,000, 15% have a hit.
Entries and their growth inhibition values follow.
Respond numerically; units are % and should not be typed.

Example cases with answers are listed next.
COc1cc2c(c(OC)c1OC)-c1c(cc3c(c1OC)OCO3)CC(C)C(C)(O)C2OC(=O)c1ccccc1 (stereo unspecified) : -13
CC(=O)Oc1ccc2c(c1)Cc1cc(N=C3C=CC(=O)O3)ccc1-2 : 98
CC(=O)Nc1ccc(/C=C(\C#N)c2ccc(C)cc2)cc1 : -18
c1ccc2c(c1)sc1nc3ccncc3nc12 : 1
S=C(N/N=C(/c1ccccc1)c1ccccn1)N1CCCCCC1 : 4

// returns reported growth inhibition for input O=C1CSC(/C=C/c2ccccc2)N1c1ccc(-c2ccc(-n3c(-c4ccccc4)nc4ccccc4c3=O)cc2)cc1 (stereo unspecified)
-2

# lookup: growth inhibition of `O=C(NC(Nc1ccc(F)c(Cl)c1)(C(F)(F)F)C(F)(F)F)C(C(F)(F)F)C(F)(F)F`
54

Requested read-out: growth inhibition. Entry: `Cc1ccc(Cl)c2[nH]c(-c3ccccc3)cc(=O)c12`
-4

Please look up its growth inhibition: `N#CN1C2CCC1CC(=O)C2`
-13

Given the compound `CN(C)CCOc1ccc2c(c1)C/C(=C/c1ncc([N+](=O)[O-])n1C)C2=O` , what is its reported growth inhibition?
29

// growth inhibition lookup, key: `c1ccc2c(c1)C(=NCCCN1CCCCCC1)c1cccn1-2`
0

###

Test: NCI Yeast Anticancer Drug Screen. Data for the rad14 strain (AID 159);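 also: 0% = growth of vehicle-treated control cultures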
Conditions: S. cerevisiae rad14 strain growth inhibition; at 33.0 µM; stronger effect = higher value
About 79,000 compounds went through this panel and 15% of them were active in at least one assay; those are over-represented in the sample as a whole. Active and inactive are the calls of the source. Cut-off read from the data, not from the text of the source: active = growth inhibition above about 70%; inactive = the rest.
measure: growth inhibition

# growth inhibition lookup, item `CCCCCCCCCCNC(=O)OCC`
8% (inactive)

For CCCCCCCC1(N=[N+]=[N-])C(=O)c2ccccc2N(C)C1=O (stereo not given) , what is its reported growth inhibition?
39% (inactive)

Entry under review: `CC(C)/C(Cl)=N\OC(=O)Nc1ccccc1F` . Reported growth inhibition?
23% (inactive)

Which growth inhibition is reported for this compound? `Clc1cccc(C(Nc2nncs2)Nc2nncs2)c1Cl`
19% (inactive)

If you can, please state the reported growth inhibition value of `Cc1cc(I)ccc1N` .
93% (active)

###

Assay: NCI Yeast Anticancer Drug Screen. Data for the sgs1 mgt1 strain (AID 161);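 also: 0% = growth of cultures given vehicle only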
Conditions: S. cerevisiae sgs1 mgt1 strain, at 50.0 µM (retest, dose inferred, filed as 5.0), stronger effect = higher value
About 79,000 compounds went through this panel and 15% of them were active in at least one assay; those are over-represented in the sample as a whole.
measure: growth inhibition (%)
State the answer as a number, implicitly in %.

N#Cc1ccc(C2NN=CC23C(=O)c2ccccc2OC3c2ccccc2)cc1 (stereo unspecified) : 93

If you can, please state the reported growth inhibition value of `N#CSc1ccc(S(N)(=O)=O)cc1` .
85

Can you look up the measured growth inhibition of `CCCCCCCCCC/C=C\C(=O)O` for me?
58

Need growth inhibition of `c1ccc2c(c1)Oc1cccc3cccc-2c13` , thanks.
43

What does the data say about its growth inhibition? Entry: O=C1C2C(C(=O)N1c1ccc(OCc3ccccc3)cc1)C1c3ccccc3C2C2CCCCN21 (stereo unspecified)
61

May I ask what growth inhibition has been recorded for `CC(C)c1cc(C(C)C)c(O)c(C([O-])[O-])c1.CC(C)c1cc(C(C)C)c(O)c(C([O-])[O-])c1.CC(C)c1cc(C(C)C)c(O)c(C([OH2+])[OH2+])c1.CC(C)c1cc(C(C)C)c(O)c(C([OH2+])[OH2+])c1.[Cu+2].[Cu+2].[OH3+].[OH3+]` ?
40

###

Experiment: NCI Yeast Anticancer Drug Screen. Data for the sgs1 strain (AID 173);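 also: 0% = growth of vehicle-only control cultures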
Conditions: S. cerevisiae sgs1 mutant, at 100.0 µM
This is part of a sample that, as a whole, favours compounds with a hit. Of some 79,000 tested, about 15% had one in any assay. Active and inactive are the calls of the source. Rule as the data show it: active = growth inhibition above about 70%; inactive = the rest.
One label from this list, please: Yes for active, No for inactive

Completed entries (count: 5):
C=C1CC(Cn2cc(Br)c(=O)[nH]c2=O)(c2ccc(-c3ccccc3)cc2)OC1=O (stereo not given) : Yes
N/C(=N\OC(=O)NC(Cl)=C(Cl)Cl)c1cc(C(F)(F)F)cc(C(F)(F)F)c1 : Yes
Cc1ccc(-n2cc(-c3ccc(Cl)cc3)c(C#N)c2N)cc1 : No
CC(=O)OCCOCNC(=S)N/N=C(\C)c1cnccn1 : Yes
C(=C\c1ccccc1)/COc1ccccc1C(N1CCOCC1)n1nc2ccccc2n1 (stereo not given) : Yes

Tell me the recorded outcome of this test for `O=C(NCCCCNCCCNC(=O)c1cc(-c2ccccc2)nc2ccccc12)c1cc(-c2ccccc2)nc2ccccc12` .
Yes

Outcome logged for `NCCNc1ccc(NCCN)c2c1C(=O)c1c(O)ccc(O)c1C2=O` in this assay:
No

What classification did OC1(c2ccccc2)CSC2=Nc3ccccc3C3CCN1N23 (stereo not given) end up with in this test?
Yes

Recorded test outcome, item `CCC/C(Cl)=N\OC(=O)Nc1ccc(Br)cc1`
Yes

Name the outcome recorded for `CC(C)/C(Cl)=N\OC(=O)Nc1ccccc1F` in the assay.
No

Could you kindly confirm the outcome this assay logged for `CN(C)C[C@H]1CC[C@@H](CN(C)C)C1=O` ?
Yes

Tell me the assay call for CC(C)=CC(=O)O[C@@H]1CC(C)(C)CC2C3=CCC4[C@]56CC[C@](O)(OC5)C(C)(C)C6CC[C@@]4(C)C3(C)CC[C@]21C(=O)O (stereo not given in full) please.
Yes

Outcome? COC(=O)C1=C(C(=O)OC)C2(C)C=CC1O2 (stereo not given)
Yes

What is the recorded call for this molecule in the test? `CCOC(=O)c1cc([N+](=O)[O-])cc([N+](=O)[O-])c1Sc1ncnc2nc[nH]c12`
Yes

Look up the recorded call for `NC(N)=N/N=C\c1c2ccccc2cc2ccccc12` in this test.
Yes

Answer briefly: the call reported for O=C1OC(CCl)CN1/N=C/c1ccc([N+](=O)[O-])o1 (stereo not given) in this assay.
Yes

Lab log entry: `CC(=O)Oc1cc(-c2cc(OC(C)=O)c(OC(C)=O)c3ccccc23)c2ccccc2c1OC(C)=O` — outcome as called in the assay?
Yes

Write down the call the test reported for this molecule. Item: `OC1CSCCCSCCSCCCSC1`
No

Which outcome did this test record for the molecule `O=C(NC(Nc1ccc(F)c(Cl)c1)(C(F)(F)F)C(F)(F)F)C(C(F)(F)F)C(F)(F)F` ?
Yes

Hello, I am checking results. What call was entered for `S=C(N/N=C/c1ccccn1)Nc1ccc(Cl)cc1` ?
No
